# targetOfAssay: Protein Tat (Human immunodeficiency virus type 1 group M subtype B (isolate HXB2)) (UniProt P04608)
# experimentalDetails: inhibitors of Tat binding to TAR RNA, dose response, counter-screen for Vif-APOBEC3G degradation inhibitor project, biochemical, fluorescence polarization, FAM-labeled TAR RNA (AID 1117361)
# conditionLabel: at 100 µM (top of the series) unless noted; series mostly up to 100 µM
About 900 (25%) of roughly 3,600 compounds were called active. These entries were drawn from the full list. Potency and affinity values are given separately.
measuredAttribute: outcome

Known outcome results, listed for orientation:
{"molecule": "O=C(COC(=O)c1ccccc1OC(F)F)Nc1ccc2[nH]c(=O)[nH]c2c1", "measuredAttribute": "outcome", "observed": "inactive"}
{"molecule": "CC(NC(=O)c1ccco1)C(=O)N1CCc2ccccc2C1 (stereo unspecified)", "measuredAttribute": "outcome", "observed": "inactive"}
{"molecule": "CCOC(=O)Nc1nnc(-c2ccccc2OC)s1", "measuredAttribute": "outcome", "observed": "inactive"}
{"molecule": "O=C(CN(C1CCCCC1)C1CCCCC1)N1CCc2ccccc2C1", "measuredAttribute": "outcome", "observed": "inactive"}
{"molecule": "COc1ccc(C2CC(O)(c3ccccc3)Oc3c(C)ccc(C)c32)cc1 (stereo unspecified)", "measuredAttribute": "outcome", "observed": "inactive"}

Next item in the queue.
Input line: Need outcome of Cc1nnc(NCCc2ccccc2)n(N)c1=O , thanks.
Output line: inactive

----------
# targetOfAssay: Protein Tat (Human immunodeficiency virus type 1 group M subtype B (isolate HXB2)) (UniProt P04608)
# experimentalDetails: inhibitors of Tat binding to TAR RNA, dose response, counter-screen for Vif-APOBEC3G degradation inhibitor project, biochemical, fluorescence polarization, FAM-labeled TAR RNA (AID 1117361)
# conditionLabel: at 100 µM (top of the series) unless noted; series mostly up to 100 µM
Screen size: about 3,600 compounds; about 900 (25%) were called active. A selection follows. Potency and affinity values are given separately.
measuredAttribute: outcome

{"molecule": "O=C(Nn1cnnc1)c1cc(-c2cccc(Br)c2)nc2ccccc12", "outcome": "inactive"}
{"molecule": "Cc1ccc(CNC(=O)CN(c2cccc([N+](=O)[O-])c2)S(C)(=O)=O)cc1", "outcome": "inactive"}
{"molecule": "COc1ccc2nc(-c3ccccc3)cc(C(=O)OCC(=O)N3CC(C)OC(C)C3)c2c1 (stereo not given)", "outcome": "inactive"}
{"molecule": "CCOC(=O)C1=C(Cn2cnc3ccccc32)NC(=O)NC1c1ccc(OC)cc1 (stereo not given)", "outcome": "inactive"}
{"molecule": "CCOc1cc(/C=C2/C(=O)N(c3ccccc3)N=C2C)ccc1OC(=O)c1ccco1", "outcome": "inactive"}

Next item in the queue.
Input line: Need outcome of Cc1ccc(CCNC(=O)C2CCCN(S(=O)(=O)c3c(C)noc3/C=C/N(C)C)C2)cc1 (stereo not given) , thanks.
Output line: inactive

----------
# targetOfAssay: Protein Tat (Human immunodeficiency virus type 1 group M subtype B (isolate HXB2)) (UniProt P04608)
# experimentalDetails: inhibitors of Tat binding to TAR RNA, dose response, counter-screen for Vif-APOBEC3G degradation inhibitor project, biochemical, fluorescence polarization, FAM-labeled TAR RNA (AID 1117361)
# conditionLabel: at 100 µM (top of the series) unless noted; series mostly up to 100 µM
The whole screen tested about 3,600 compounds, of which about 900 (25%) were called active. A selection follows. Results with a measured potency or affinity are listed apart.
measuredAttribute: outcome

Known outcome results, listed for orientation:
{"molecule": "Cc1nn(-c2ccccc2)cc1/C=N/O", "observed": "inactive"}
{"molecule": "Fc1ccc(C(CCCn2nnc(-c3cccnc3)n2)c2ccc(F)cc2)cc1", "observed": "inactive"}
{"molecule": "COc1cc(CNCCc2ccccc2F)ccc1OCc1ccc(Cl)nc1", "observed": "inactive"}
{"molecule": "Cc1ccc(OCC(=O)NNC(=O)CCc2ccccc2)cc1", "observed": "inactive"}
{"molecule": "CCCc1nc(SCC(=O)N2CCCc3ccccc32)c2c(=O)n(C)c(=O)n(C)c2n1", "observed": "inactive"}

Input line: Need outcome of CCCn1nc(Oc2nc(SC)nc(N(C)C)n2)ccc1=O , thanks.
Output line: inactive

Values were extracted from PubChem BioAssay AID1117361.
